B1: CD207 (parent)
chain: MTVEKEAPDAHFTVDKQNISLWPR

Variants of: B1
Assay: protein stability index of a GFP-peptide fusion (GPS, HEK-293T) (PSI 1-6); higher = more stable;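 note: lentivirally expressed fusions sorted by FACS into six bins by GFP to DsRed ratio, PSI derived from sequencing read proportions per bin multiplied by bin number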
Details: c terminus: a fixed tail appended
Rule: protein stability index of 3 or more gives TRUE; anything lower gives FALSE.

Example results:
# variant string, category label
records = [
    ("R24F", "TRUE"),
    ("W22P", "TRUE"),
    ("S20P", "TRUE"),
    ("M1G", "TRUE"),
]

Determine whether measured protein stability index meets or exceeds 3 for "K5W"
FALSE

Proceed to "D9N"
TRUE

Proceed to "A7T"
TRUE

Proceed to "V3Q"
TRUE

Proceed to "A10C"
TRUE

Proceed to "D15K"
FALSE
